All figures here come from the supplement of paper PMC10567573.

B1: TMEM175 (parent)
chain: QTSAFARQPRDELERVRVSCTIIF

variants of: B1; assay: protein stability index of a GFP-peptide fusion (GPS, HEK-293T) (PSI 1-6); higher = more stable; details: c terminus: a fixed tail appended;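 also: lentivirally expressed fusions sorted by FACS into six bins by GFP to DsRed ratio, PSI derived from sequencing read proportions per bin multiplied by bin number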
Property Label: protein stability index
Note: the reply should be a number with no unit written.

Reference set, count: 10
In [3]: df
Out[3]:
   variant_identifier           property_label  recorded_value
0                F24E  protein stability index            3.76
1                I23P  protein stability index            3.13
2                V16L  protein stability index            1.91
3                I22H  protein stability index            2.72
4                C20Q  protein stability index            2.42
5                V18I  protein stability index            2.49
6                F24C  protein stability index            2.66
7                E12Q  protein stability index             1.9
8                V16G  protein stability index            1.14
9                 R7L  protein stability index            2.48

Identify the reported protein stability index for the following entry. P9W
2.31

Identify the reported protein stability index for the following entry. S19V
1.99

Identify the reported protein stability index for the following entry. A4S
3.97
